For each entry below, report its phosphorylation enrichment value.
- Target desc: FGFR1 (UniProt P11362)
- Sequence (P11362 whole entry, looked up): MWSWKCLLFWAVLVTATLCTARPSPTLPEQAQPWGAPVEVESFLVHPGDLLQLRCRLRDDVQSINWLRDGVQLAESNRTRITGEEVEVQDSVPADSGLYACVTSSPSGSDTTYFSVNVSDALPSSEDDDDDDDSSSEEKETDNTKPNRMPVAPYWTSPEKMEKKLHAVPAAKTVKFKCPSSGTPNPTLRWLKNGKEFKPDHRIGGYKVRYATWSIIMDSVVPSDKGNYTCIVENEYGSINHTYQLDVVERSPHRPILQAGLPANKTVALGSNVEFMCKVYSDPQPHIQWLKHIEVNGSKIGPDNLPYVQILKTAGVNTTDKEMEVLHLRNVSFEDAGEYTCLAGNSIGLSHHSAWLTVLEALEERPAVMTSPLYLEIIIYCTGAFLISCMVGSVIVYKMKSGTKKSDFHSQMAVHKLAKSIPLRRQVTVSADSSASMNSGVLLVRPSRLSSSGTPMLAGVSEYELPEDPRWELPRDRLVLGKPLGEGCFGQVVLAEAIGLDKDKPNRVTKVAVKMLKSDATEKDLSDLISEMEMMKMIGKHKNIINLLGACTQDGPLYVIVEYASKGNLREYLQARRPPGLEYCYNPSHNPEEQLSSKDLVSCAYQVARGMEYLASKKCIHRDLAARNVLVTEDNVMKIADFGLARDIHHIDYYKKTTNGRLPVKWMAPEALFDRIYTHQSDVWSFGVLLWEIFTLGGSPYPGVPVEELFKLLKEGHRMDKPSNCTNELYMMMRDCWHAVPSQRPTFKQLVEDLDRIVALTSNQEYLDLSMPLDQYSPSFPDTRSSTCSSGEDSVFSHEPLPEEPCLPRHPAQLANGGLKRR
- Assay details: phosphorylation enrichment, bacterial display (enrichment ratio); higher = better substrate or ligand; peptides without Tyr show the background;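 further: 11-residue human phosphosite peptides and single-mutation variants displayed on the E. coli surface, counted by deep sequencing, each peptide's frequency after selection divided by its frequency in the unselected input library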;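 further: frequency after pTyr selection over input frequency; kinase dosed for 20-30% of maximal phosphorylation in three min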
Numbers only.

[
  {
    "Query sequence": "EDDPEYMRLRN [ADD2_Y31]",
    "Target desc": "FGFR1 (UniProt P11362)",
    "phosphorylation enrichment": 0.785
  },
  {
    "Query sequence": "EEHIPCTHMNG [INSR_Y1361_Y1361C]",
    "Target desc": "FGFR1 (UniProt P11362)",
    "phosphorylation enrichment": 0.592
  },
  {
    "Query sequence": "DPLLTYLFPPK [LMNA_Y481_R482L]",
    "Target desc": "FGFR1 (UniProt P11362)",
    "phosphorylation enrichment": 4.35
  },
  {
    "Query sequence": "VRTGIYHGREP [PIK3CA_Y361_G364R]",
    "Target desc": "FGFR1 (UniProt P11362)",
    "phosphorylation enrichment": 0.324
  },
  {
    "Query sequence": "NCLREYVAGRF [CRB1_Y711]",
    "Target desc": "FGFR1 (UniProt P11362)",
    "phosphorylation enrichment": 0.53
  }
]

Batch of 8 sequences: report phosphorylation enrichment for each.
1. MSSHHCDFKKF [ZNF445_Y428_Y428C_YF]
2. ADLLVYIKALN [HPRT1_Y81_D80V]
3. RCNHPYLINGA [CHD7_Y1256_C1251R]
4. SIKDKHVTALF [KCNH2_Y611_Y611H_YF]
5. MGGSLYFSFPD [HIKESHI_Y55_V54L_YF]
6. FPIDHYLGKEM [G6PD_Y202_R198P_YF]
7. KVKVEYDMTVP [AHNAK_Y964_G962V]
8. YCRIMYDIFPF [INTS13_Y67]

OUTPUT:
0.437
0.512
0.464
0.418
5.92
0.492
0.495
3.47

Batch of 8 sequences: report phosphorylation enrichment for each.
1. EFENSYIFDIN [GAB1_Y83]
2. NYYDLYGGEKF [PTPN11_Y66_D61N]
3. AKVKPYINGTS [IBTK_Y1064_V1065I]
4. NLTVNYKKNLI [SQOR_Y259]
5. TEAEPYYCSLR [NPHS1_Y1138_R1140C]
6. EFGFRYELVQF [UGGT2_Y1289_Y1285F_YF]
7. DSGRDYVSQFE [APOA1_Y53]
8. IEENGYNTFAS [FGF10_Y161_YF]

OUTPUT:
0.478
13.4
0.297
0.427
1.49
0.477
0.462
0.602

----------
For each entry below, report its phosphorylation enrichment value.
- Target desc: FGFR1 (UniProt P11362)
- Assay details: phosphorylation enrichment, bacterial display (enrichment ratio); higher = better substrate or ligand; peptides without Tyr show the background

Recorded phosphorylation enrichment, per entry:
[
  {
    "Query sequence": "PGVDIYISPNM [PADI3_Y51]",
    "phosphorylation enrichment": 1.67
  },
  {
    "Query sequence": "FGRTFYNQAIM [MCCC2_Y196]",
    "phosphorylation enrichment": 0.377
  },
  {
    "Query sequence": "KRRGPYEMSPS [PLPP7_Y172_T174M]",
    "phosphorylation enrichment": 0.338
  },
  {
    "Query sequence": "ASKEPYYVHCI [MYO1D_Y585_R588H]",
    "phosphorylation enrichment": 1.89
  },
  {
    "Query sequence": "EVDETYVPKEF [ALB_Y521]",
    "phosphorylation enrichment": 0.589
  }
]

Batch of 5 sequences: report phosphorylation enrichment for each.
1. SFTDPYAQPSL [KMT2D_Y2378_P2382S_YF]
2. SNKLHYQLEQE [PDPR_Y110_Y109H]
3. QPDLLYDHIQP [TRRAP_Y862_F860L]
4. NARGLYYKLHN [GATA2_Y376_C373R]
5. LSNPAYRLLLA [DDR1_Y513]

OUTPUT:
[0.508, 0.496, 1.02, 1.08, 1.17]
